- experimental target: Serine/threonine-protein kinase PLK1 (Homo sapiens) (UniProt P53350);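 note: reported values are mean PLK1 inhibition, measured as part of the GSK PKIS profiling set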
- Sequence (P53350 whole entry): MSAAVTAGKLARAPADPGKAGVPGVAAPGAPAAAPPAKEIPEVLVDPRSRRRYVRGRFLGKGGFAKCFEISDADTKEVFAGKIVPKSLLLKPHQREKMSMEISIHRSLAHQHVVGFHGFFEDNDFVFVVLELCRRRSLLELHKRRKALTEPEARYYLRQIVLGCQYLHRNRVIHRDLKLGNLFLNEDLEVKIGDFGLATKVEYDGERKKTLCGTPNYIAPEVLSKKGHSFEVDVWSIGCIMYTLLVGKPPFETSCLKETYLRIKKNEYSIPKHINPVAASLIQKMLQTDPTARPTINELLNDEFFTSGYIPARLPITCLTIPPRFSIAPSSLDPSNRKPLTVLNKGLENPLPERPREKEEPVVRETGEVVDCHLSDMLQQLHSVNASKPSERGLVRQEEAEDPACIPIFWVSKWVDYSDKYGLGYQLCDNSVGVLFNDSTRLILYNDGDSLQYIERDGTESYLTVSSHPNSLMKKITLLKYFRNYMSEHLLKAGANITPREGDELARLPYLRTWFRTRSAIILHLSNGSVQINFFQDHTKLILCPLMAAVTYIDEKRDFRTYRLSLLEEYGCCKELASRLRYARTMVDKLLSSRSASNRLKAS
- settings: at 0.1 µM

chemical structure	experimental target	value units	inhibition
NS(=O)(=O)c1ccc(NC=C2C(=O)Nc3ccc4ncsc4c32)cc1	Serine/threonine-protein kinase PLK1 (Homo sapiens) (UniProt P53350)	%	4.42
COc1ccc2ncnc(Nc3ccc(OCc4ccccc4)cc3)c2c1	Serine/threonine-protein kinase PLK1 (Homo sapiens) (UniProt P53350)	%	2.95
[O-][S+]1CCN(Cc2ccc(-c3ccc4ncnc(Nc5ccc(OCc6ccccc6)c(Cl)c5)c4c3)o2)CC1	Serine/threonine-protein kinase PLK1 (Homo sapiens) (UniProt P53350)	%	3.9
COc1cccc(-n2nc(C)c3c(N/N=C(\C)c4ccncc4)ncnc32)c1	Serine/threonine-protein kinase PLK1 (Homo sapiens) (UniProt P53350)	%	-0.78
COc1cc(/C=N/Nc2ncnc3c2cnn3C(C)C)ccc1O	Serine/threonine-protein kinase PLK1 (Homo sapiens) (UniProt P53350)	%	3.79
COc1cccc(-n2ncc3c(N/N=C/c4ccc(C)cc4)ncnc32)c1	Serine/threonine-protein kinase PLK1 (Homo sapiens) (UniProt P53350)	%	7.38
CCS(=O)(=O)c1ccc(OC)c(Nc2ncc(-c3cccc(OC)c3)o2)c1	Serine/threonine-protein kinase PLK1 (Homo sapiens) (UniProt P53350)	%	4.39
NC(=O)c1cccc(Nc2nccc(Nc3cccc(F)c3)n2)c1	Serine/threonine-protein kinase PLK1 (Homo sapiens) (UniProt P53350)	%	2.05
Oc1cccc(-c2nc(-c3ccccc3)[nH]c2-c2ccncc2)c1	Serine/threonine-protein kinase PLK1 (Homo sapiens) (UniProt P53350)	%	4.15
CN(C)C(=O)O[C@H]1CN[C@H](C#Cc2cc3ncnc(Nc4ccc(OCc5cccc(F)c5)c(Cl)c4)c3s2)C1	Serine/threonine-protein kinase PLK1 (Homo sapiens) (UniProt P53350)	%	2.9
CCn1c(-c2nonc2N)nc2ccc(F)cc21	Serine/threonine-protein kinase PLK1 (Homo sapiens) (UniProt P53350)	%	6.39
COC(=O)Nc1nc2cc(Oc3ccc(NC(=O)Nc4cccc(Br)c4)cc3)ccc2[nH]1	Serine/threonine-protein kinase PLK1 (Homo sapiens) (UniProt P53350)	%	6.02
CS(=O)(=O)Nc1cccc(-c2ccc3c(NC(=O)C4CC4)n[nH]c3c2)c1	Serine/threonine-protein kinase PLK1 (Homo sapiens) (UniProt P53350)	%	0.09
Cc1ccc2c(c1)/C(=N/Nc1ccc(S(N)(=O)=O)cc1)C(=O)N2	Serine/threonine-protein kinase PLK1 (Homo sapiens) (UniProt P53350)	%	0.67
COc1cc2ncn(-c3cc(OCc4ccccc4S(C)(=O)=O)c(C#N)s3)c2cc1OC	Serine/threonine-protein kinase PLK1 (Homo sapiens) (UniProt P53350)	%	10
Cc1cc(Cl)cc2c1NC(=O)C2=NNc1ccc(S(N)(=O)=O)cc1	Serine/threonine-protein kinase PLK1 (Homo sapiens) (UniProt P53350)	%	6.15
N#Cc1c(NC(=O)c2ccccc2F)sc2c1CCCC2	Serine/threonine-protein kinase PLK1 (Homo sapiens) (UniProt P53350)	%	-2.61
COC(=O)c1cncc(/C=C/c2c(C)cc(O)cc2C)c1	Serine/threonine-protein kinase PLK1 (Homo sapiens) (UniProt P53350)	%	1.89
c1ccc(Nc2ncc(-c3ccccc3)o2)cc1	Serine/threonine-protein kinase PLK1 (Homo sapiens) (UniProt P53350)	%	5.96
COc1cc2ncnc(Nc3ccc(C)c(O)c3)c2cc1OC	Serine/threonine-protein kinase PLK1 (Homo sapiens) (UniProt P53350)	%	2.93
ON=C1CCc2cc(-c3nc(C4CCNCC4)[nH]c3-c3ccncc3)ccc21	Serine/threonine-protein kinase PLK1 (Homo sapiens) (UniProt P53350)	%	1.85
NS(=O)(=O)c1cccc(-c2cc3ccncc3cc2OCc2ccccc2)c1	Serine/threonine-protein kinase PLK1 (Homo sapiens) (UniProt P53350)	%	3.05
COc1ccc(-c2nn3ncccc3c2-c2ccnc(Nc3cccc(C(F)(F)F)c3)n2)cc1	Serine/threonine-protein kinase PLK1 (Homo sapiens) (UniProt P53350)	%	1.94
CC(C)c1ccc2c(c1)NC(=O)/C2=N/Nc1ccc(S(N)(=O)=O)cc1	Serine/threonine-protein kinase PLK1 (Homo sapiens) (UniProt P53350)	%	2.6
Cc1cc(O)cc(C)c1/C=C/c1cncc(C(=O)N(C)C)c1	Serine/threonine-protein kinase PLK1 (Homo sapiens) (UniProt P53350)	%	5.15
COC(=O)c1ccc2c(c1)C(=Cc1cc(Br)c(O)c(Br)c1)C(=O)N2	Serine/threonine-protein kinase PLK1 (Homo sapiens) (UniProt P53350)	%	5.7
CC(C)c1ccc(Nc2nccc(-c3cnn4ncccc34)n2)cc1	Serine/threonine-protein kinase PLK1 (Homo sapiens) (UniProt P53350)	%	2.9
CCS(=O)(=O)c1ccc(OC)c(Nc2nccc(N(C)c3ccc4c(C)n[nH]c4c3)n2)c1	Serine/threonine-protein kinase PLK1 (Homo sapiens) (UniProt P53350)	%	4.22
Cc1ccc2c(-c3ccnc(Nc4ccc5c(c4)OCCO5)n3)c(-c3ccc(C(F)(F)F)cc3)nn2n1	Serine/threonine-protein kinase PLK1 (Homo sapiens) (UniProt P53350)	%	-2.52
CN(c1ccc(NC(=O)Nc2ccc(OC(F)(F)F)cc2)cc1)c1ccnc(Nc2cccc(S(N)(=O)=O)c2)n1	Serine/threonine-protein kinase PLK1 (Homo sapiens) (UniProt P53350)	%	2.14
NS(=O)(=O)c1cccc(Nc2cc(-c3ccc(F)cc3)n[nH]2)c1	Serine/threonine-protein kinase PLK1 (Homo sapiens) (UniProt P53350)	%	3.38
NC(=O)c1sc(-n2cnc3ccccc32)cc1OCc1ccccc1Br	Serine/threonine-protein kinase PLK1 (Homo sapiens) (UniProt P53350)	%	78.3
NS(=O)(=O)c1ccc(N/N=C2\C(=O)Nc3ccc(Cl)cc32)cc1	Serine/threonine-protein kinase PLK1 (Homo sapiens) (UniProt P53350)	%	1.63
NS(=O)(=O)c1ccc(Nc2cc(-c3cccc(O)c3)n[nH]2)cc1	Serine/threonine-protein kinase PLK1 (Homo sapiens) (UniProt P53350)	%	5.76
c1ccc(Cc2nc3ccc(Nc4ncnc5ccccc45)cc3[nH]2)cc1	Serine/threonine-protein kinase PLK1 (Homo sapiens) (UniProt P53350)	%	2.22
Nc1nccc(-c2c(-c3ccc(F)cc3)nn3cc(C(F)(F)F)ccc23)n1	Serine/threonine-protein kinase PLK1 (Homo sapiens) (UniProt P53350)	%	2.53
C[C@@H](Oc1cc(-n2cnc3ccc(OC[C@@H](O)CO)cc32)sc1C(N)=O)c1ccccc1Cl	Serine/threonine-protein kinase PLK1 (Homo sapiens) (UniProt P53350)	%	92.2
O=C1Nc2ccc(-c3cccnc3)cc2C1=Cc1cc(Br)c(O)c(Br)c1	Serine/threonine-protein kinase PLK1 (Homo sapiens) (UniProt P53350)	%	3.43
Cc1cc(-c2ccccn2)cc(C)c1/C=C/c1cncc(-c2nn[nH]n2)c1	Serine/threonine-protein kinase PLK1 (Homo sapiens) (UniProt P53350)	%	5.02
O=C1Nc2ccccc2/C1=C/Nc1ccc2[nH]c(=O)[nH]c2c1	Serine/threonine-protein kinase PLK1 (Homo sapiens) (UniProt P53350)	%	5.67
O=C(Nc1ccc(Oc2ccc3[nH]c(NC(=O)c4ccco4)nc3c2)cc1)Nc1cc(C(F)(F)F)ccc1F	Serine/threonine-protein kinase PLK1 (Homo sapiens) (UniProt P53350)	%	0.92
Cc1ccc(C(=O)NC2CC2)cc1-c1ccc2[nH]ncc2c1	Serine/threonine-protein kinase PLK1 (Homo sapiens) (UniProt P53350)	%	-2.55
